System: Zea mays (ZEAMX, corn, maize, e.g. volunteer corn)
Experiment: Biological Example 1 glasshouse assay for herbicidal activity
Assay type: in vivo
Conditions: Zea mays, post-emergence, 312 h, post-emergence, 8 g/ha, 13 days after application; read-out: percentage phytotoxicity ZEAMX
Parameter Measured: pest or weed control at 8 g/ha (%)
Numbers only; they are read as %.

Q: Request - read-out pest or weed control at 8 g/ha | tested on Zea mays (ZEAMX, corn, maize, e.g. volunteer corn) | compound CC#Cc1cc(F)c(C2=C(OC(=O)OC(C)C)C3CCC(C3)C2=O)c(OC)c1 (stereo not shown) [Compound P3]
Result: 90

Q: Item: CC#Cc1cc(F)c(C2C(=O)C3CCC(C3)C2=O)c(OC)c1 (stereo not shown) [Compound A1]
Result: 100

Q: Item: CC#Cc1cc(F)c(C2=C(OC(=O)SCC)C3CCC(C3)C2=O)c(OC)c1 (stereo not shown) [Compound P4]
Result: 100

Q: Item: CC#Cc1cc(F)c(C2=C(OC(=O)C(C)(C)C)C3CCC(C3)C2=O)c(OC)c1 (stereo not shown) [Compound P1]
Result: 100

Q: Item: CC#Cc1cc(F)c(C2=C(OC(=O)OCC)C3CCC(C3)C2=O)c(OC)c1 (stereo not shown) [Compound P2]
Result: 90

Q: Item: CC#Cc1cc(F)c(C2=C(OC(=O)c3ccccc3)C3CCC(C3)C2=O)c(OC)c1 (stereo not shown) [Compound P5]
Result: 100

Q: Item: C#Cc1cc(F)c(C2C(=O)C3CCC(C3)C2=O)c(OC)c1 (stereo not shown) [Compound B1]
Result: 80

Recorded values, source patent US10590143B2.
